Attribute: IC50
target: Lck (Homo sapiens, UniProt P06239); construct: Kinases are expressed as either kinase domains or full length constructs; made in house; experiment: Kinase inhibition assay (33P transfer), Lck; assay type: biochemical; settings: read-out: Lck-1
Sequence (P06239 whole entry, species assumed, the tested form may be a part): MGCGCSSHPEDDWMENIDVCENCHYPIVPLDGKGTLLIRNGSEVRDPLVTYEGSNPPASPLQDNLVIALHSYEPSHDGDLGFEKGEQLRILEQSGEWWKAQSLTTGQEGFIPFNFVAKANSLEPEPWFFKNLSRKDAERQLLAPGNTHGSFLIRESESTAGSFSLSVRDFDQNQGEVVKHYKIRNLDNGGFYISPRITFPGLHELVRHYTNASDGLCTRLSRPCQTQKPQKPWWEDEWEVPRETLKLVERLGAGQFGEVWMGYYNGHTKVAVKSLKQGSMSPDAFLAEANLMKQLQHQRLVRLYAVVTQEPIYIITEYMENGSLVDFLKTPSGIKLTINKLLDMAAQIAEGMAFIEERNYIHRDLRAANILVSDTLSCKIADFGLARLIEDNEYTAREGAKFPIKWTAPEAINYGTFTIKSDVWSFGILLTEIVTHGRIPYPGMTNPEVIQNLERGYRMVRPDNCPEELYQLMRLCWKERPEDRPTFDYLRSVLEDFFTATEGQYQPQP
value_kind: IC50

- molecule: "COc1cc(Nc2ncnc(Nc3cccc4ncccc34)n2)cc(OC)c1OC [Compound 695]"
  value_kind: "IC50"
  value_observed: "< 0.989 µM"
- molecule: "COc1ccc(N(C)c2ncnc(-n3c(N)nc4ccccc43)n2)cc1 [Compound 663]"
  value_kind: "IC50"
  value_observed: "> 13 µM"
- molecule: "COc1cc(CNc2ncnc(N(C)c3cccc(Cl)c3)n2)cc(OC)c1OC [Compound 747]"
  value_kind: "IC50"
  value_observed: "> 10.8 µM"
- molecule: "C=CCNc1ncccc1-c1ncnc(Nc2ccc(C(N)=O)cc2)n1 [Compound 1081]"
  value_kind: "IC50"
  value_observed: "1.15 to 6.91 µM"
- molecule: "COc1cc(Nc2ncnc(-n3c(NC4c5ccccc5CC4O)nc4ccccc43)n2)cc(OC)c1OC (stereo not drawn) [Compound 579]"
  value_kind: "IC50"
  value_observed: "0.761 to 4.57 µM"
- molecule: "CCC(Nc1nc2ccccc2n1-c1ncnc(Nc2cc(OC)c(OC)c(OC)c2)n1)c1ccccc1 (stereo not drawn) [Compound 592]"
  value_kind: "IC50"
  value_observed: "0.782 to 4.69 µM"
- molecule: "O=C(O)Cc1cccc(Nc2ncnc(Nc3cc(-c4ccco4)n[nH]3)n2)c1 [Compound 983]"
  value_kind: "IC50"
  value_observed: "6.36 to 9.27 µM"
- molecule: "C=CCNC(=O)c1ccc(-c2cc(Nc3ncnc(Nc4cc(OC)c(OC)c(OC)c4)n3)[nH]n2)cc1 [Compound 1005]"
  value_kind: "IC50"
  value_observed: "6.96 to 8.95 µM"
- molecule: "CN(c1cccc(Cl)c1)c1ncnc(Nc2ccccc2)n1 [Compound 748]"
  value_kind: "IC50"
  value_observed: "1.28 to 7.7 µM"
- molecule: "CCN(CC)C(=O)C1CCCN(c2ncnc(Nc3cc(OC)c(OC)c(OC)c3)n2)C1 (stereo not drawn) [Compound 615]"
  value_kind: "IC50"
  value_observed: "7.87 to 10.1 µM"
- molecule: "COC(=O)c1ccc(-c2cc(Nc3ncnc(Nc4cc(OC)c(OC)c(OC)c4)n3)[nH]n2)cc1 [Compound 523]"
  value_kind: "IC50"
  value_observed: "< 0.838 µM"
- molecule: "Cc1ccc2c(c1)CCCN2c1ncnc(NCCc2cccnc2)n1 [Compound 775]"
  value_kind: "IC50"
  value_observed: "> 13 µM"
- molecule: "CN(c1cccc(Cl)c1)c1ncnc(Nc2cccc(CC(=O)O)c2)n1 [Compound 706]"
  value_kind: "IC50"
  value_observed: "> 12.2 µM"
- molecule: "COc1cc(Nc2ncnc(-c3cccnc3NCc3ccccn3)n2)cc(OC)c1OC [Compound 1080]"
  value_kind: "IC50"
  value_observed: "5.39 to 7.86 µM"
- molecule: "CCOC(=O)N1CCC(Nc2ncnc(N3CCCc4cc(C)ccc43)n2)CC1 [Compound 765]"
  value_kind: "IC50"
  value_observed: "> 11.3 µM"
- molecule: "COc1cc(Nc2ncnc(Nc3cc(-c4ccc(Cl)c(Cl)c4)n[nH]3)n2)cc(OC)c1OC [Compound 589]"
  value_kind: "IC50"
  value_observed: "0.819 to 4.91 µM"
- molecule: "CCc1cccc(Nc2ncnc(-n3c(N)nc4ccccc43)n2)c1 [Compound 655]"
  value_kind: "IC50"
  value_observed: "1.21 to 7.24 µM"
- molecule: "COc1ccc(Nc2ncnc(NCc3c(C)cccc3Cl)n2)cc1OC [Compound 791]"
  value_kind: "IC50"
  value_observed: "> 11.7 µM"
- molecule: "CN(c1cccc(Cl)c1)c1ncnc(Nc2ccc(C(F)(F)F)cc2)n1 [Compound 744]"
  value_kind: "IC50"
  value_observed: "> 11.8 µM"
- molecule: "Nc1nc2ccccc2n1-c1ncnc(Nc2ccc3c(c2)OCO3)n1 [Compound 526]"
  value_kind: "IC50"
  value_observed: "1.15 to 6.91 µM"
- molecule: "Nc1ncnc(-n2c(N)nc3ccccc32)n1 [Compound 646]"
  value_kind: "IC50"
  value_observed: "> 19.8 µM"
- molecule: "CC(C)(C)c1cc(Nc2ncnc(Nc3cccc(CO)c3)n2)[nH]n1 [Compound 499]"
  value_kind: "IC50"
  value_observed: "1.18 to 7.07 µM"
- molecule: "c1ccc(Cn2ncc3cc(Nc4ncnc(Nc5ncccn5)n4)ccc32)cc1 [Compound 738]"
  value_kind: "IC50"
  value_observed: "> 11.4 µM"
- molecule: "COc1ccc(CNc2nc3ccccc3n2-c2ncnc(Nc3cccc(Cc4nnn[nH]4)c3)n2)cc1 [Compound 959]"
  value_kind: "IC50"
  value_observed: "0.791 to 4.75 µM"
- molecule: "COc1ccc(Nc2ncnc(NCCC#N)n2)cc1OC [Compound 787]"
  value_kind: "IC50"
  value_observed: "> 15 µM"
- molecule: "CN(c1cccc(Cl)c1)c1ncnc(Nc2ccc3cn[nH]c3c2)n1 [Compound 718]"
  value_kind: "IC50"
  value_observed: "> 12.8 µM"
- molecule: "COc1cc(Nc2ncnc(-n3c(NCc4cccc(Cl)c4)nc4ccccc43)n2)cc(OC)c1OC [Compound 949]"
  value_kind: "IC50"
  value_observed: "< 0.772 µM"
- molecule: "Cc1cccc(Nc2ncnc(N(C)c3cccc(Cl)c3)n2)c1 [Compound 709]"
  value_kind: "IC50"
  value_observed: "7.37 to 10.7 µM"
- molecule: "COc1cc(Nc2ncnc(Nc3cc(F)cc(C(F)(F)F)c3)n2)cc(OC)c1OC [Compound 632]"
  value_kind: "IC50"
  value_observed: "0.91 to 5.46 µM"
- molecule: "CCCN(CC1CC1)c1ncnc(Nc2cc(OC)c(OC)c(OC)c2)n1 [Compound 626]"
  value_kind: "IC50"
  value_observed: "1.07 to 6.43 µM"

* * *

target: IGFR-1 (Homo sapiens, UniProt P08069); construct: Kinases are expressed as either kinase domains or full length constructs; made in house; experiment: Kinase inhibition assay (33P transfer), IGFR-1; type: biochemical; settings: Table 2, kinase inhibition class
Sequence (P08069 31-1367): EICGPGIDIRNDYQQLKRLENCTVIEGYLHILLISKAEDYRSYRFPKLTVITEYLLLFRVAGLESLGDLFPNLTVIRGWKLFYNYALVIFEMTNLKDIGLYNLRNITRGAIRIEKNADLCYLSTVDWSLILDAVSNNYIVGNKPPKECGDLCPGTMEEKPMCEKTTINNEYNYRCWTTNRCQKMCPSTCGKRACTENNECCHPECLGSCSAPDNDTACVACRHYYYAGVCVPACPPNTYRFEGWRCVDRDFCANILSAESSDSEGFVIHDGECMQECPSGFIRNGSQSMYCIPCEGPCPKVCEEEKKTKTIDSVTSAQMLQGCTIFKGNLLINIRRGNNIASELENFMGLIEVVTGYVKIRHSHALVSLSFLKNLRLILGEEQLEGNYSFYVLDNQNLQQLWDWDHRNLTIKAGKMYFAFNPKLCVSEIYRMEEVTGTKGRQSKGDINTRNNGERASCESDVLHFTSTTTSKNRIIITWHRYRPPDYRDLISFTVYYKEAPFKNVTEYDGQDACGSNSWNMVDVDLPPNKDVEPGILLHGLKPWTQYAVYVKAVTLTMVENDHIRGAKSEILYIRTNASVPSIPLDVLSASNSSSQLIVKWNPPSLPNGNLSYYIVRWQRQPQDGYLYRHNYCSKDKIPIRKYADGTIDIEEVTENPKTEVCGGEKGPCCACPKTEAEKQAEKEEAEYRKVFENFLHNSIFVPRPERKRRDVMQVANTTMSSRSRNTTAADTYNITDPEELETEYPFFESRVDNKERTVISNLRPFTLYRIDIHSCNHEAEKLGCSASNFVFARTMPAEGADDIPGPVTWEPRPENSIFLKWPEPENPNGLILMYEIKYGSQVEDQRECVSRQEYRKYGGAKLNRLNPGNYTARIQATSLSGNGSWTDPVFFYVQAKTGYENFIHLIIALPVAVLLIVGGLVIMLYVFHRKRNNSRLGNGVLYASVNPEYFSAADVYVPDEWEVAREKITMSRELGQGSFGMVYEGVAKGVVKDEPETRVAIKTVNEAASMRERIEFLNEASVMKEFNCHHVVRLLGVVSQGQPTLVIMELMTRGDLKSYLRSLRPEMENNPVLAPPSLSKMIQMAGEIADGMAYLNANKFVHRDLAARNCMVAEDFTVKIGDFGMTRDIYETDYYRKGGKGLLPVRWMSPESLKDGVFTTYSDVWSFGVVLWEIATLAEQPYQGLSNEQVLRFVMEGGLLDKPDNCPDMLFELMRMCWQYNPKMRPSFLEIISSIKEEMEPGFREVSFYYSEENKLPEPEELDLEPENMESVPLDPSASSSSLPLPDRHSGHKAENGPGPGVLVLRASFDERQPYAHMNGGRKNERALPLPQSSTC

- compound: "COc1cc(OC)cc(-c2nnc(Nc3ncnc(Nc4cc(OC)c(OC)c(OC)c4)n3)[nH]2)c1 [Compound 312]"
  IC50: "> 9.37 µM"
- compound: "COc1cc(Nc2ncnc(Nc3ccc(O)cc3C)n2)cc(OC)c1OC [Compound 927]"
  IC50: "> 11.7 µM"
- compound: "COc1ccc(Nc2ncnc(N(CC(=O)OC(C)(C)C)c3ccc4c(c3)OCO4)n2)cc1OC [Compound 310]"
  IC50: "0.831 to 4.98 µM"
- compound: "NC(=O)c1cccc(Nc2ncnc(-c3ccccc3)n2)c1 [Compound 151]"
  IC50: "> 15.4 µM"
- compound: "CCOC(=O)Cc1ccc(Nc2ncnc(Nc3cc(OC)c(OC)c(OC)c3)n2)cc1 [Compound 62]"
  IC50: "0.91 to 5.46 µM"
- compound: "COc1cc(Nc2ncnc(-c3ccccc3)n2)cc(OC)c1 [Compound 15]"
  IC50: "> 14.6 µM"

* * *

biological target: Kdr (Homo sapiens); construct: Kinases are expressed as either kinase domains or full length constructs; made in house; assay: Kinase inhibition assay (33P transfer), Kdr; type: biochemical; settings: read-out: KDR-1
Sequence (P35968 20-1356, species assumed): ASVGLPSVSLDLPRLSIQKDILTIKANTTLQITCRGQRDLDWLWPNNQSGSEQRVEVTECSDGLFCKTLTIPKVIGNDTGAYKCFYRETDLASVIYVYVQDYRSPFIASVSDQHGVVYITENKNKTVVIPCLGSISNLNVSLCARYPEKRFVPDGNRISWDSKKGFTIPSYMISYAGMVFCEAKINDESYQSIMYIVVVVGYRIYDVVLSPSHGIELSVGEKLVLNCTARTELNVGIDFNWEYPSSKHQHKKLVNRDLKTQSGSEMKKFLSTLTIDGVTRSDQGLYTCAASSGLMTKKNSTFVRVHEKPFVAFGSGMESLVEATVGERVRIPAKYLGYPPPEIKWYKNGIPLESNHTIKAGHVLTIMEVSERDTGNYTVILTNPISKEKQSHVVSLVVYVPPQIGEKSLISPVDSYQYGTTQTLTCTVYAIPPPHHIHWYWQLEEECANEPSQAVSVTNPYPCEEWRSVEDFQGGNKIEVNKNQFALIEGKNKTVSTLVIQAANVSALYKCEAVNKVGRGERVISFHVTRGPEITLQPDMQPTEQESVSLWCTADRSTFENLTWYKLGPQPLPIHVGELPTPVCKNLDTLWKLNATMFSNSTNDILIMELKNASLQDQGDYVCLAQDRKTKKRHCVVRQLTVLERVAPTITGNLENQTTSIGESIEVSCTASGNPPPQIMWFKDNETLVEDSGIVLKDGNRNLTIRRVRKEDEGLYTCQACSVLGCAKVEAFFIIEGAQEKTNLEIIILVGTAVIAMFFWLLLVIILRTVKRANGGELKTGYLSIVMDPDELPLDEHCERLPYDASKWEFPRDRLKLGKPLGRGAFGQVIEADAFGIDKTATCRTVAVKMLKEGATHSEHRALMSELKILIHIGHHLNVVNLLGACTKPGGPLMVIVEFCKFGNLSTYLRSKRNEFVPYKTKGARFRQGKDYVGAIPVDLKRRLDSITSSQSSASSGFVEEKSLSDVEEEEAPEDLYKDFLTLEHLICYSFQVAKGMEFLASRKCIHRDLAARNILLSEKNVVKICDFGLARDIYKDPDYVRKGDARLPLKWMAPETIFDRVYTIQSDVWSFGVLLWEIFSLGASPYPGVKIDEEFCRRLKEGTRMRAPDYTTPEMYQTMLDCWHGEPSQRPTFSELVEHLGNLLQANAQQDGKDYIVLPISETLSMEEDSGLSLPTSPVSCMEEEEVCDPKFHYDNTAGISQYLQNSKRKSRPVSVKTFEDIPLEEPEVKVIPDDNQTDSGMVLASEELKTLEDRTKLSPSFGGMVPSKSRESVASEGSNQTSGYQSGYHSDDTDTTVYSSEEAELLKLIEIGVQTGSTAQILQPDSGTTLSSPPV
pIC50: −log10 of the molar value.

- molecule: "c1ccc(Cn2ncc3cc(Nc4ncnc(Nc5ccc(N6CCOCC6)cc5)n4)ccc32)cc1 [Compound 729]"
  pIC50: "5.30 to 6.08"
- molecule: "COc1cc(Nc2ncnc(-n3c(NCc4ccc(F)cc4Cl)nc4ccccc43)n2)cc(OC)c1OC [Compound 951]"
  pIC50: "> 6.13"
- molecule: "COc1cc(Nc2ncnc(N(C)c3cccc(Cl)c3)n2)cc(OC)c1 [Compound 712]"
  pIC50: "5.19 to 5.97"
- molecule: "Cc1ccc2c(c1)CCCN2c1ncnc(Nc2cccc(-c3cnco3)c2)n1 [Compound 774]"
  pIC50: "5.20 to 5.98"
- molecule: "CCOC(=O)CNc1ncnc(N2CCCc3cc(C)ccc32)n1 [Compound 761]"
  pIC50: "< 4.86"
- molecule: "COc1ccc(Nc2ncnc(-n3c(=O)[nH]c4ccccc43)n2)cn1 [Compound 489]"
  pIC50: "< 4.87"
- molecule: "Cc1cccc(Nc2ncnc(Nc3ccc4c(cnn4Cc4ccccc4)c3)n2)c1 [Compound 553]"
  pIC50: "5.23 to 6.01"
- molecule: "COc1ccc(Nc2ncnc(-n3c(N)nc4ccccc43)n2)cc1 [Compound 656]"
  pIC50: "> 5.92"
- molecule: "COc1cc(Nc2ncnc(-c3ccc(NCCCN)nc3)n2)cc(OC)c1OC [Compound 472]"
  pIC50: "5.23 to 6.01"
- molecule: "COc1cc(Nc2ncnc(-n3c(NC(CCO)c4ccccc4)nc4ccccc43)n2)cc(OC)c1OC (stereo not shown) [Compound 591]"
  pIC50: "> 6.12"
- molecule: "Cc1ccc2c(c1)CCCN2c1ncnc(Nc2cc[nH]n2)n1 [Compound 766]"
  pIC50: "5.11 to 5.89"
- molecule: "COc1ccc(Nc2ncnc(-n3c(N)nc4ccccc43)n2)cn1 [Compound 648]"
  pIC50: "5.14 to 5.92"
- molecule: "CN(c1cccc(Cl)c1)c1ncnc(Nc2ccc(CC(=O)O)cc2)n1 [Compound 705]"
  pIC50: "4.91 to 5.02"

All figures here come from patent US7074789B2.
